# Experimental protocol: chemical genetic growth profiling, strain panel (AID 1159580);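 also: tested at 20 µM; growth read once vehicle control cultures reached saturation at 30 °C; 1 = growth at the plate median or of vehicle wells; lower values mean less growth of the strain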
# Assay conditions: S. cerevisiae deletion strains, growth OD, locus YBR231C, strain swc5, active compounds read low
Hit rate of the full screen: of about 5,500 compounds, about 2,000 (36%) were called active. Inconclusive results (about 18%) are left out. This is one part of the list.
Measurement label: normalized growth
Give your answer as a number; write no unit.

Quick one: normalized growth for COc1ccc2c(c1)CCC1C2CC[C@@]2(C)C1CC[C@@H]2O (stereo not given in full) ?
0.978

Cool, now C[C@]12CCC3c4ccc(O)cc4CCC3C1C[C@@H](O)[C@@H]2O (stereo not given in full)
0.988

Cool, now CC(=O)OCC1=C(C(=O)O)N2C(=O)[C@@H](NC(=O)Cc3cccs3)[C@H]2SC1
0.988

Cool, now COc1cc(OC)c2ccc(=O)oc2c1
0.963

Cool, now CO[C@@]1(NC(=O)C(C(=O)O)c2ccc(O)cc2)C(=O)N2C(C(=O)O)=C(CSc3nnnn3C)CO[C@@H]21 (stereo not given in full)
0.956

Cool, now O=C(O[C@@H]1Cc2c(O)cc(O)cc2O[C@@H]1c1cc(O)c(=O)c2c(O)c(O)cc([C@H]3Oc4cc(O)cc(O)c4C[C@H]3O)c2c1)c1cc(O)c(O)c(O)c1
0.427

Cool, now CCCCCCC(C)OC(=O)COc1ccc(Cl)cc1Cl (stereo not given)
0.984

Cool, now COc1cc2occc2c2oc(=O)ccc12
0.962

Cool, now OC1CC2CCCC(C1)N2Cc1ccccc1 (stereo not given)
0.988

Cool, now COc1c2ccoc2cc2oc(=O)ccc12
0.872

Cool, now CC(C)[N+](C)(CCC(C(N)=O)(c1ccccc1)c1ccccc1)C(C)C
0.991

Cool, now CC(C)N(CCC(C(N)=O)(c1ccccc1)c1ccccn1)C(C)C (stereo not given)
0.0926

Cool, now COc1ccc(-c2cc(=O)c3c(O)cc(O[C@@H]4O[C@H](CO[C@H]5O[C@H](C)[C@@H](O)[C@H](O)[C@@H]5O)[C@@H](O)[C@H](O)[C@H]4O)cc3o2)cc1O
1.02

Cool, now CCC1OC(=O)[C@H](C)C(=O)[C@H](C)[C@@H](OC2O[C@H](C)C[C@H](N(C)C)[C@H]2O)[C@](C)(OC)C2(CCCn3cnc(-c4cccnc4)c3)C[C@@H](C)C(=O)[C@H](C)[C@H]3N(C2)C(=O)O[C@]13C (stereo not given in full)
0.984

Cool, now COc1ccc2c(c1)CCC1C2CCC2(C)C1C[C@@H](O)C2O (stereo not given in full)
1.01
